# PROTOCOL_TEXT: Pharmacokinetics in CD-1 mice, serum by LC-MS/MS
# Format: in vivo, mouse
# STATED_CONDITIONS: CD-1, mouse, serum, intraperitoneal; 20 mg/kg IP, 0 min; read-out: [Drug] serum concentration
MEASURED_ENDPOINT: concentration at 0 min

Query :: Find the recorded concentration at 0 min belonging to "CCCS(=O)(=O)Nc1cc(Cl)cc(-c2nc(C(C)(C)C)sc2-c2ccnc(N)n2)c1F" and report it.
Result :: 0 nM

----------
# TARGET_SYSTEM: P-gp (Homo sapiens)
# Construct: host or cells: MDCK (MDR1-MDCK)
# PROTOCOL_TEXT: MDR1-MDCK P-gp transwell bidirectional transport assay
# Assay type: in vitro ADME
# STATED_CONDITIONS: dog, MDCK-MDR1; range of Papp A-B to B-A; read-out: cell culture permeabilities
Measured Papp at 90 min, 10 µM accompanies every entry in the list below.

{"STRUCTURE_STRING": "CCCS(=O)(=O)Nc1cc(Cl)cc(-c2nc(C(C)(C)C)sc2-c2ccnc(NCCCCC(=O)O)n2)c1F", "TARGET_SYSTEM": "P-gp (Homo sapiens)", "Papp at 90 min, 10 µM": "2.2 to 2.5 ×10⁻⁶ cm/s"}

Query :: Find the recorded Papp at 90 min, 10 µM belonging to "CCCS(=O)(=O)Nc1cc(Cl)cc(-c2nc(C(C)(C)C)sc2-c2ccnc(N)n2)c1F" and report it.
Result :: 4.9 to 6.4 ×10⁻⁶ cm/s

----------
# Test system: HCT116 cells
# PROTOCOL_TEXT: 72-hour cell viability assay (Alamar Blue), HCT116
# Format: cell-based
# STATED_CONDITIONS: WT BRAF, read-out: HCT116 IC50
pIC50: −log10 of the molar value.
MEASURED_ENDPOINT: pIC50

Query :: Find the recorded pIC50 belonging to CC(C)(C)c1nc(-c2cccc(NS(=O)(=O)c3c(F)cccc3F)c2F)c(-c2ccnc(N)n2)s1 [Dabrafenib, reference compound] and report it.
Result :: < 6.00

----------
# TARGET_SYSTEM: P-gp (Homo sapiens, UniProt P08183)
# Construct: host or cells: MDCK (MDR1-MDCK)
# Sequence (P08183 whole entry): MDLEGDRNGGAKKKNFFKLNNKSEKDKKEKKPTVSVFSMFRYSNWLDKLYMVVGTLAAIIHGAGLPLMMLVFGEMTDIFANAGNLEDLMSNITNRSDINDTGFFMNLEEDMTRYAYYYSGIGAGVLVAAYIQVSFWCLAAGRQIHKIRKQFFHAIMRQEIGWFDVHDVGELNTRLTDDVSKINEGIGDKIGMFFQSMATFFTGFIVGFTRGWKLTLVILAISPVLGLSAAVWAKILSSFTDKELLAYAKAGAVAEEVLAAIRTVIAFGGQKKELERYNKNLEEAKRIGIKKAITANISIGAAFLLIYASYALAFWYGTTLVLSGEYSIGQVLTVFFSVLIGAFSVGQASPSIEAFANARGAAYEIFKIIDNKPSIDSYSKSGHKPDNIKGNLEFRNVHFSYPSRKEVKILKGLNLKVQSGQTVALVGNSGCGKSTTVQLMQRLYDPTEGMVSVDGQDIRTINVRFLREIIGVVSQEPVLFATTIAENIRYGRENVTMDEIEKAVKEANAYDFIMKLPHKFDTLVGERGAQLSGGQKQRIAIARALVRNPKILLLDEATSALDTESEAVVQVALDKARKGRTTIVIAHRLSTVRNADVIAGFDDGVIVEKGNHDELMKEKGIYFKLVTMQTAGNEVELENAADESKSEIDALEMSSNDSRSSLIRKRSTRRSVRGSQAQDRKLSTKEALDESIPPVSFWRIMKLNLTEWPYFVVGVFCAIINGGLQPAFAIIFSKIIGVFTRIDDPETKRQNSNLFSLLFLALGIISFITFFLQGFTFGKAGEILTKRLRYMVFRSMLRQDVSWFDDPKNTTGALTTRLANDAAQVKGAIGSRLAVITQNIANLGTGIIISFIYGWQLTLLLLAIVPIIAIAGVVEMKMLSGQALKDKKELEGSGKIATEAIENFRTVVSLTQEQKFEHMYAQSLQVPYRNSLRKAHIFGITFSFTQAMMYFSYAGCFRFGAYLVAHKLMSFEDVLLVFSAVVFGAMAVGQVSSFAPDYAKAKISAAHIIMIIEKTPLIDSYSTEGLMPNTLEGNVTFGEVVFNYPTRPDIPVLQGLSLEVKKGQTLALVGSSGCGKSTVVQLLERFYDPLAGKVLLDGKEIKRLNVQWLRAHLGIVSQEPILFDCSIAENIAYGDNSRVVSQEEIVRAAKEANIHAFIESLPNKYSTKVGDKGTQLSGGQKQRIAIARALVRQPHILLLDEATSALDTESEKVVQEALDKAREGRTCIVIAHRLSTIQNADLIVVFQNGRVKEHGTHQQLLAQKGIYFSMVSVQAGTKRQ
# PROTOCOL_TEXT: MDR1-MDCK P-gp transwell bidirectional transport assay
# Type: in vitro ADME
# STATED_CONDITIONS: dog, MDCK-MDR1, MDR1-MDCK, 10 μM, 90 min; read-out: ER (efflux ratio) (converted)
MEASURED_ENDPOINT: efflux ratio at 90 min, 10 µM
Simply state the number, no unit and no words.

Below are worked cases with known answers.
{"MOLECULE": "CCCS(=O)(=O)Nc1cc(Cl)cc(-c2nc(C(C)(C)C)sc2-c2ccnc(NCCCCC(=O)O)n2)c1F", "VAL": 1.17}
{"MOLECULE": "CC(C)(C)c1nc(-c2cccc(NS(=O)(=O)c3c(F)cccc3F)c2F)c(-c2ccnc(Nc3ccc(C(=O)O)cc3)n2)s1", "VAL": 0.984}
{"MOLECULE": "CC(C)(C)c1nc(-c2cccc(NS(=O)(=O)c3c(F)cccc3F)c2F)c(-c2ccnc(N[C@H]3CC[C@@H](C(=O)O)CC3)n2)s1", "VAL": 3.22}
{"MOLECULE": "CC(C)(C)c1nc(-c2cccc(NS(=O)(=O)c3c(F)cccc3F)c2F)c(-c2ccnc(NCCCCC(=O)O)n2)s1", "VAL": 1.96}
{"MOLECULE": "CCCS(=O)(=O)Nc1cc(Cl)cc(-c2nc(C(C)(C)C)sc2-c2ccnc(N)n2)c1F", "VAL": 1.4}
{"MOLECULE": "CC(C)(C)c1nc(-c2c(F)ccc(NS(=O)(=O)c3cc(C(F)(F)F)ccc3C(F)(F)F)c2F)c(-c2ccnc(N)n2)s1", "VAL": 6.05}
{"MOLECULE": "CC(C)(C)c1nc(-c2cccc(NS(=O)(=O)c3c(F)cccc3F)c2F)c(-c2ccnc(CCCCC(=O)O)n2)s1", "VAL": 1.93}
{"MOLECULE": "CC(C)NCC(O)COc1cccc2ccccc12 (stereo not drawn) [Propranolol, reference compound]", "VAL": 1.18}

Query :: State its efflux ratio at 90 min, 10 µM on P-gp (Homo sapiens, UniProt P08183): "CC(C)(C)c1nc(-c2c(F)ccc(NS(=O)(=O)c3cc(C(F)(F)F)ccc3C(F)(F)F)c2F)c(-c2ccnc(NCCCCC(=O)O)n2)s1"
Result :: 0.6

Query :: State its efflux ratio at 90 min, 10 µM on P-gp (Homo sapiens, UniProt P08183): C=C[C@H]1C[N@@]2CC[C@H]1C[C@@H]2[C@@H](O)c1ccnc2ccc(OC)cc12 [Quinidine, reference compound]
Result :: 8.09

Query :: State its efflux ratio at 90 min, 10 µM on P-gp (Homo sapiens, UniProt P08183): CCCS(=O)(=O)Nc1ccc(F)c(C(=O)c2c[nH]c3ncc(-c4ccc(Cl)cc4)cc23)c1F [Vemurafenib, reference compound]
Result :: 5.92

Query :: State its efflux ratio at 90 min, 10 µM on P-gp (Homo sapiens, UniProt P08183): "CC(C)(C)c1nc(-c2cccc(NS(=O)(=O)c3c(F)cccc3F)c2F)c(-c2ccnc(NCCCC(=O)O)n2)s1"
Result :: 0.61

Query :: State its efflux ratio at 90 min, 10 µM on P-gp (Homo sapiens, UniProt P08183): "CC(C)(C)c1nc(-c2cccc(NS(=O)(=O)c3c(F)cccc3F)c2F)c(-c2ccnc(N[C@H]3CC[C@H](C(=O)O)CC3)n2)s1"
Result :: 0.56

Query :: State its efflux ratio at 90 min, 10 µM on P-gp (Homo sapiens, UniProt P08183): "CC(C)(C)c1nc(-c2cccc(NS(=O)(=O)c3c(F)cccc3F)c2F)c(-c2ccnc(N[C@@H]3CC[C@H](C(=O)O)C3)n2)s1"
Result :: 1.3

Query :: State its efflux ratio at 90 min, 10 µM on P-gp (Homo sapiens, UniProt P08183): "CC(C)(C)c1nc(-c2cccc(NS(=O)(=O)c3c(F)cccc3F)c2F)c(-c2ccnc(CCC(=O)O)n2)s1"
Result :: 0.86

Reference for the values: patent US20250230151A1
